tested on: HL-60(TB) leukemia; test: NCI-60 one-dose screen, 48 h (100 = growth as untreated, 0 = no growth, -100 = all killed); conditions: 10 µM unless noted
This is part of a sample that, as a whole, favours compounds with a hit. Of some 83,000 tested, about 20% had one in any assay. Active and inactive are the calls of the source. How the source made its calls: active means growth percent below 10; inactive means the rest.
growth values for the molecules below.

What does the record list as growth for "COc1ccc(S(=O)(=O)N2CCCCCC2)cc1NC(=O)c1[nH]c(C)c2c1CCCCC2=O" ? 7.56% (active)

What does the record list as growth for "CCCCCCCSc1ncnc2[nH]ncc12" ? 87.4% (inactive)

What does the record list as growth for "Cc1cc(C(c2ccccc2)c2ccccc2)ccc1NS(=O)(=O)c1ccccc1" ? 78.5% (inactive)

What does the record list as growth for "c1ccc2c(c1)cnc1ccccc12" ? 94.9% (inactive)

What does the record list as growth for "C#Cc1ccccc1NC(=O)c1sc2nc3c(cc2c1N)CCCCC3" ? 99.7% (inactive)

What does the record list as growth for "CCC(=O)Oc1ccc(/C(=C(/C)Cc2cccc(OC)c2)c2ccc(OCCN(C)C)cc2)cc1" ? 91.3% (inactive)

----------
test system: HL-60(TB) leukemia; assay: NCI-60 one-dose screen, 48 h; conditions: 10 µM unless noted
Compounds without any hit were thinned out: in the full panel of roughly 83,000, 20% have a hit. Activity calls are given as the source filed them. How the source made its calls: active means growth percent below 10; inactive means the rest.
Result category, one only: YES = active, NO = inactive

Short answer needed: outcome of this test for "O=C(NCCc1ccccc1)/C(=C\c1ccc(Cl)cc1Cl)NC(=O)c1ccccc1" ? NO

Short answer needed: outcome of this test for "Cc1ccccc1NC(=O)c1sc2nc(C)c(C(=O)/C=C/c3ccccc3)cc2c1N" ? YES

----------
system: HL-60(TB) leukemia; experiment: NCI-60 one-dose screen, 48 h; settings: 10 µM unless noted
This is part of a sample that, as a whole, favours compounds with a hit. Of some 83,000 tested, about 20% had one in any assay. Activity calls are given as the source filed them. Rule for the calls: active = growth percent below 10; inactive = the rest.
Result category, one only: Yes for active, No for inactive

# COMPOUND, DISCRETE LABEL
data = [
    ("COC(=O)[C@]12CCC(C)(C)C[C@H]1C1=CC[C@@H]3[C@@]4(C)C/C(=C/c5cccnc5)C(=O)C(C)(C)[C@@H]4CC[C@@]3(C)[C@]1(C)CC2", "Yes"),
    ("CC1(CO)CCCC12OCCO2 (stereo unspecified)", "No"),
    ("COc1cc2cc(COc3nccc(-c4ccc(Cl)cc4)n3)c(=O)[nH]c2cc1OC", "No"),
    ("CCCC(=O)Oc1ccc(/C(=C(\\C)c2ccc(OC)cc2)c2ccc(OCCN3CCCCC3)cc2)cc1", "No"),
    ("CCCCNC(=O)Oc1ccc(/C(=C(\\C)c2ccc(OC)cc2)c2ccc(OCCN3CCCCC3)cc2)cc1", "No"),
    ("CC(=O)n1nc(C(=O)OC(C)C)c2cc(C)c(C)cc21", "No"),
    ("COc1ccc(-c2c(N)noc2-c2cc(OC)c3c(c2)OCCO3)cc1", "Yes"),
    ("CN(O)c1nc(N(C)O)nc(N2CCOCC2)n1", "No"),
    ("COc1ccc(C2=CC(c3ccc(Oc4ccnc5cc(Cl)ccc45)c(OC)c3)c3c(nc(OC)[nH]c3=O)N2)cc1 (stereo unspecified)", "No"),
    ("Clc1ccc(/C=N\\N=c2\\scc(-c3ccc(Cl)cc3)n2/N=C/c2ccc(Cl)cc2)cc1", "No"),
]

Next:
Short answer needed: outcome of this test for COc1cccc(C2C3=C(COC3=O)N(CCO)c3cc(OC)ccc32)c1 (stereo unspecified) ? Yes

----------
test system: HL-60(TB) leukemia; assay: NCI-60 one-dose screen, 48 h (100 = growth as untreated, 0 = no growth, -100 = all killed); details: 10 µM unless noted
About 83,000 compounds went through this panel and 20% of them were active in at least one assay; those are over-represented in the sample as a whole. Active and inactive are the calls of the source. The calls were made as follows: active = growth percent below 10; inactive = the rest.
MEASURE NAME: growth

What does the record list as growth for "Cc1[nH]c2ccc(F)cc2c1CCNC(=O)C1CCN(C(=O)c2ccccc2)CC1" ? 102% [25 µM] (inactive)

What does the record list as growth for "O=C(NO)c1ccc(Cn2c(=O)n(-c3ccccc3)c(=O)c3ccccc32)cc1" ? 1.26% (active)

What does the record list as growth for "COc1cc2cc(Oc3ccc(NC(=O)Nc4cccc(C(F)(F)F)c4)cc3)c(C)nc2cc1OCCN1CCOCC1" ? 66.9% (inactive)

----------
tested on: HL-60(TB) leukemia; assay: NCI-60 one-dose screen, 48 h; conditions: 10 µM unless noted
About 83,000 compounds went through this panel and 20% of them were active in at least one assay; those are over-represented in the sample as a whole. Calls of active or inactive are those of the source. The calls were made as follows: active = growth percent below 10; inactive = the rest.
Result category, one only: active, inactive

# COMPOUND STRING, DISCRETE LABEL
records = [
    ("C[C@@H](CO)[C@@H]1CCC=C2CC[C@]3(C)[C@H](CC[C@@H]4[C@@]5(C)CCCNC(C)(C)[C@@H]5CC[C@]43C)[C@H]21", "active"),
    ("C/C(=N/O)c1ccc(F)cc1", "inactive"),
]

Next:
Short answer needed: outcome of this test for "Cc1c(C(=O)NCCCc2ccccc2)sc2ncc(-c3ccc(Br)cc3)n12" ? inactive

----------
tested on: HL-60(TB) leukemia; assay: NCI-60 one-dose screen, 48 h; conditions: 10 µM unless noted
The panel holds about 83,000 compounds, 20% with a hit somewhere; the sample as a whole holds those more often. Active and inactive are the calls of the source. The calls were made as follows: active = growth percent below 10; inactive = the rest.
Result category, one only: t for active, f for inactive

Completed entries (count: 2):
# COMPOUND, TARGET OF ASSAY, DISCRETE LABEL
records = [
    ("COc1ccc(/C=c2\\sc3n(c2=O)C2C(NN=3)N(C)C(=O)N2C)cc1 (stereo not drawn)", "HL-60(TB) leukemia", "t"),
    ("Cc1ccc(C2=Nc3c(ccc4c(C)c(C)c(=O)oc34)OC2)cc1", "HL-60(TB) leukemia", "f"),
]

Short answer needed: outcome of this test for COc1ccc2c(c1)C1(C(=O)N2)C(C#N)=C(c2ccccc2)Nc2c1c(-c1ccccc1)nn2-c1ccccc1 (stereo not drawn) ? t

----------
test system: HL-60(TB) leukemia; test: NCI-60 one-dose screen, 48 h (100 = growth as untreated, 0 = no growth, -100 = all killed); details: 10 µM unless noted
Compounds without any hit were thinned out: in the full panel of roughly 83,000, 20% have a hit.
Label t when growth is at or above -10%; otherwise label f.

Completed entries (count: 3):
# COMPOUND, DISCRETE LABEL
records = [
    ("O=C(c1cc2ccccc2o1)c1nn(-c2ccccc2)/c(=N/N=Cc2cn(-c3ccccc3)nc2-c2cc3ccccc3oc2=O)s1", "t"),
    ("COC(=O)[C@H](Cc1ccccc1)NC(=O)[C@@H](OC)[C@@H]1Cc2cc3cc(OC4CC(OC5CC(O)C(O)C(C)O5)C(O)C(C)O4)c(C)c(O)c3c(O)c2C(=O)[C@H]1OC1CC(OC2CC(OC3CC(C)(O)C(O)C(C)O3)C(O)C(C)O2)C(O)C(C)O1 (stereo not given in full)", "t"),
    ("O=C1c2ccccc2CN1c1ccccc1", "t"),
]

Determine whether this compound has growth no lower than -10%: "CCCCNC(=O)Oc1ccc(/C(=C(/CC)Cc2ccccc2)c2ccc(OCCN3CCCCCC3)cc2)cc1" f

Determine whether this compound has growth no lower than -10%: "c1ccc(OCC[P+](c2ccccc2)(c2ccccc2)c2ccccc2)cc1" f

----------
tested on: HL-60(TB) leukemia; assay: NCI-60 one-dose screen, 48 h (100 = growth as untreated, 0 = no growth, -100 = all killed); conditions: 10 µM unless noted
The panel holds about 83,000 compounds, 20% with a hit somewhere; the sample as a whole holds those more often.
MEASURE NAME: growth (%)
# number only, unit % dropped from output

What does the record list as growth for "O=c1c(/C=C/c2ccco2)nnc(SCCN2CCOCC2)n1/N=C/c1ccc([N+](=O)[O-])cc1" ? 87.9

What does the record list as growth for COc1ccc(SC2c3cc(OC)c(OC)cc3Oc3nc(N)c(C#N)c(N)c32)cc1 (centres undefined) ? -51.5

What does the record list as growth for "C=C1C(=O)O[C@H]2[C@H]1CC/C(COC(=O)CSCCSCC(=O)OC/C1=C/CC[C@@]3(C)O[C@H]3[C@H]3OC(=O)C(=C)[C@@H]3CC1)=C\CC[C@@]1(C)O[C@@H]21" ? -58.8

What does the record list as growth for "ClCc1ccc(-c2ccc(Cn3cnc4c(Cl)nc(Cl)nc43)cc2)cc1" ? -53.7

----------
system: HL-60(TB) leukemia; assay: NCI-60 one-dose screen, 48 h; conditions: 10 µM unless noted
The panel holds about 83,000 compounds, 20% with a hit somewhere; the sample as a whole holds those more often. Activity calls are given as the source filed them. The calls were made as follows: active = growth percent below 10; inactive = the rest.
Result category, one only: 1.0 (active), 0.0 (inactive)

Short answer needed: outcome of this test for CC(C)CC1NC(=O)C(CC(C)C)N(CO)C1=O (stereo not drawn) ? 0.0

Short answer needed: outcome of this test for "Cc1ccc(F)c(NC(=O)Nc2ccc(-c3cccc4[nH]nc(N)c34)cc2)c1" ? 1.0

Short answer needed: outcome of this test for "Nc1c(C(=O)Nc2ccncc2)sc2nc3c(cc12)CCCCCC3" ? 0.0
